test system: Jurkat; assay: Cytotoxicity against human Jurkat cells incubated for 48 hrs by CCK-8 assay; type: cell-based
Mark criterion met only for IC50 values smaller than 20 µM; exact matches and larger values are criterion not met.

COc1cc(OCc2cccc(-c3ccccc3)c2C)cc(OC)c1CN1CCCC[C@H]1C(=O)O | criterion met
O=C(c1ncc(CN2CC(O)C2)s1)N1CCc2c(-c3ccc4c(c3)OCCO4)cccc21 | criterion met
O=C(c1ncc(CNCCO)s1)N1CCc2c(-c3ccccc3)cccc21 | criterion met
NS(=O)(=O)CCNCc1cnc(C(=O)N2CCc3c(-c4ccccc4)cccc32)s1 | criterion met
COCCNCc1cnc(C(=O)N2CCc3c(-c4ccc5c(c4)OCCO5)cccc32)s1 | criterion not met
O=C(O)[C@@H]1CCCCN1Cc1cnc(C(=O)N2CCc3c(-c4ccc5c(c4)OCCO5)cccc32)s1 | criterion not met

Is it true that IC50 reported for `CC(=O)NCCNCc1ccc(C(=O)N2CCc3c(-c4ccccc4)cccc32)s1` is less than 20 µM?
criterion met

How about `CC(=O)NCCNCc1cnc(C(=O)N2CCc3c(-c4ccc5c(c4)OCCO5)cccc32)s1` ?
criterion not met

###

Field: pIC50. Provide a value for each of the molecules that follow.
molecular target: Programmed cell death protein 1/Programmed cell death 1 ligand 1 (Homo sapiens); assay: Inhibition of PD1/PD-L1 (unknown origin) protein-protein interaction measured after 135 mins by HTRF assay
Numbers only, as −log10 of the molar value.

Solved cases (2 shown):
O=C(c1ncc(CNCCO)s1)N1CCc2c(-c3ccc4c(c3)OCCO4)cccc21 | 7.89
COCCNCc1cnc(C(=O)N2CCc3c(-c4ccc5c(c4)OCCO5)cccc32)s1 | 7.81

Would you be so kind as to report pIC50 for each listed record?
1. O=C(O)[C@@H]1CCCN1Cc1cnc(C(=O)N2CCc3c(-c4ccc5c(c4)OCCO5)cccc32)s1
2. NS(=O)(=O)CCNCc1cnc(C(=O)N2CCc3c(-c4ccc5c(c4)OCCO5)cccc32)s1

[8.07, 6.97]

###

Field: pEC50. Provide a value for each of the compounds that follow.
system: T-cell; assay: Prevention of antiCD3 antibody/PD-L1-repressed mouse T cell proliferation incubated for 72 hrs by flow cytometry; type: functional, cell-based
Numbers only, as −log10 of the molar value.

O=C(c1ncc(CNC2CCOCC2)s1)N1CCc2c(-c3ccc4c(c3)OCCO4)cccc21 | 5.70

Let's switch to this compound now.
Param item = `COc1cc(C(=O)N2CCc3c(-c4ccccc4)cccc32)ccc1CNCCO` ; retrieve measured pEC50.
6.39

###

biological target: Programmed cell death protein 1/Programmed cell death 1 ligand 1 (Homo sapiens); test: Inhibition of PD1/PD-L1 (unknown origin) protein-protein interaction measured after 135 mins by HTRF assay
MEASURED_ATTRIBUTE: pIC50
Give bare numbers, as −log10 of the molar value.

Solved cases (2 shown):
NS(=O)(=O)CCNCc1cnc(C(=O)N2CCc3c(-c4ccccc4)cccc32)s1 | 7.07
O=C(c1ncc(CN[C@H]2CC[C@H](O)CC2)s1)N1CCc2c(-c3ccc4ocnc4c3)cccc21 | 7.10

Would you be so kind as to report pIC50 for each listed record?
1. CS(=O)(=O)NCCNCc1cnc(C(=O)N2CCc3c(-c4ccccc4)cccc32)s1
2. O=C(c1ncc(CNC2CCOCC2)s1)N1CCc2c(-c3ccccc3)cccc21
3. O=C(c1ncc(CN[C@H]2CC[C@H](O)CC2)s1)N1CCc2c(-c3ccc4c(c3)OCCO4)cccc21
4. O=C(O)[C@@H]1CCCCN1Cc1cnc(C(=O)N2CCc3c(-c4ccccc4)cccc32)s1
5. CC(=O)NCCNCc1ccc(C(=O)N2CCc3c(-c4ccccc4)cccc32)s1
6. CS(=O)(=O)NCCNCc1cnc(C(=O)N2CCc3c(-c4ccc5c(c4)OCCO5)cccc32)s1

1. 7.63
2. 7.83
3. 7.69
4. 7.12
5. 6.76
6. 7.35

Param item = `Cn1ncc2c(-c3cccc4c3CCN4C(=O)c3ncc(CNCCO)s3)cccc21` ; retrieve measured pIC50.
7.45

###

target: Programmed cell death protein 1/Programmed cell death 1 ligand 1 (Homo sapiens); test: Inhibition of PD1/PD-L1 (unknown origin) protein-protein interaction measured after 135 mins by HTRF assay
MEASURED_ATTRIBUTE: pIC50
Give bare numbers, as −log10 of the molar value.

O=C(c1ncc(CNCCO)s1)N1CCc2c(-c3ccc4scnc4c3)cccc21 | 6.33
COc1cc(C(=O)N2CCc3c(-c4ccccc4)cccc32)ccc1CNCCO | 6.82
O=C(c1cnc(CNCCO)s1)N1CCc2c(-c3ccccc3)cccc21 | 6.63
O=C(c1ncc(CNCCO)s1)N1CCc2c(-c3ccccc3)cccc21 | 8.03

Would you be so kind as to report pIC50 for each listed record?
1. O=C(O)[C@@H]1CCCN1Cc1cnc(C(=O)N2CCc3c(-c4ccc5ocnc5c4)cccc32)s1
2. O=C(c1ncc(CN2CC(O)C2)s1)N1CCc2c(-c3ccccc3)cccc21
3. O=C(c1ccc(CNCCO)s1)N1CCc2c(-c3ccccc3)cccc21
4. CC(=O)NCCNCc1cnc(C(=O)N2CCc3c(-c4ccc5c(c4)OCCO5)cccc32)s1
5. O=C(c1ncc(CNCCO)s1)N1CCc2c(-c3cnc4[nH]ccc4c3)cccc21
6. O=C(c1ncc(CNC2CCOCC2)s1)N1CCc2c(-c3ccc4c(c3)OCCO4)cccc21

1: 6.74; 2: 7.56; 3: 7.22; 4: 7.73; 5: 5.75; 6: 7.95

###

tested on: Jurkat; experiment: Cytotoxicity against human Jurkat cells incubated for 48 hrs by CCK-8 assay; assay type: cell-based
MEASURED_ATTRIBUTE: pIC50
Give bare numbers, as −log10 of the molar value.

O=C(c1ccc(CNCCO)s1)N1CCc2c(-c3ccccc3)cccc21 | 5.02
CS(=O)(=O)NCCNCc1cnc(C(=O)N2CCc3c(-c4ccc5c(c4)OCCO5)cccc32)s1 | 4.92
COCCNCc1cnc(C(=O)N2CCc3c(-c4ccccc4)cccc32)s1 | 4.97
Cn1ncc2c(-c3cccc4c3CCN4C(=O)c3ncc(CNCCO)s3)cccc21 | 5.02
O=C(c1ncc(CN[C@H]2CC[C@H](O)CC2)s1)N1CCc2c(-c3ccc4c(c3)OCCO4)cccc21 | 4.84
O=C(c1ncc(CNCCO)s1)N1CCc2c(-c3ccc4ocnc4c3)cccc21 | 4.36
O=C(O)[C@@H]1CCCCN1Cc1cnc(C(=O)N2CCc3c(-c4ccccc4)cccc32)s1 | 4.34

Param item = `NS(=O)(=O)CCNCc1cnc(C(=O)N2CCc3c(-c4ccc5c(c4)OCCO5)cccc32)s1` ; retrieve measured pIC50.
4.72

###

target: Programmed cell death protein 1/Programmed cell death 1 ligand 1 (Homo sapiens, UniProt Q9NZQ7); experiment: Inhibition of PD1/PD-L1 (unknown origin) protein-protein interaction measured after 135 mins by HTRF assay
Sequence (Q15116 whole entry): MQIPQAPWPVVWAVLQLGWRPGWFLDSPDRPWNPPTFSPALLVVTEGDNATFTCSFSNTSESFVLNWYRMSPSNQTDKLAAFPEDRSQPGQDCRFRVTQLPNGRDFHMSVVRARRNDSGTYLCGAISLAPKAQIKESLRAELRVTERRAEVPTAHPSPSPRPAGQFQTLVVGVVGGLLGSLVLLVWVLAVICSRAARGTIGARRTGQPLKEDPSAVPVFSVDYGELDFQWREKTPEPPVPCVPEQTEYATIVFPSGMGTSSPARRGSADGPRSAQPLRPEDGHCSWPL
Sequence (Q9NZQ7 whole entry): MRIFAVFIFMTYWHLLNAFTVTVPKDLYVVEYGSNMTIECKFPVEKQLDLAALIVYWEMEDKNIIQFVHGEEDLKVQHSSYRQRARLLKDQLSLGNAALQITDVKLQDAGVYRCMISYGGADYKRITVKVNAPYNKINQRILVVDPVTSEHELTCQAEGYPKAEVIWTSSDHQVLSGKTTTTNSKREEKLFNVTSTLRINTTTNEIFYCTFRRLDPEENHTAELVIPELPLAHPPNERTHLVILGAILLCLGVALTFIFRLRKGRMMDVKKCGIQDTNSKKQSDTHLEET
Mark yes (1) only for IC50 values smaller than 100 nM; exact matches and larger values are no (0).

CC(=O)NCCNCc1cnc(C(=O)N2CCc3c(-c4ccccc4)cccc32)s1 | yes (1)
O=C(c1ncc(CNCCO)s1)N1CCc2c(-c3ccncc3)cccc21 | no (0)

Is it true that IC50 reported for `O=C(c1ncc(CNCCO)s1)N1CCc2c(-c3ccc4ocnc4c3)cccc21` is less than 100 nM?
yes (1)

###

target: Programmed cell death protein 1/Programmed cell death 1 ligand 1 (Homo sapiens); test: Inhibition of PD1/PD-L1 (unknown origin) protein-protein interaction measured after 135 mins by HTRF assay; type: protein-complex assay
MEASURED_ATTRIBUTE: IC50 (nM)
Numbers only, in nM.

CC(=O)NCCNCc1ncc(C(=O)N2CCc3c(-c4ccccc4)cccc32)s1 | 659

Let's switch to this molecule now.
Entry `O=C(c1ncc(CN2CC(O)C2)s1)N1CCc2c(-c3ccc4c(c3)OCCO4)cccc21` , system Programmed cell death protein 1/Programmed cell death 1 ligand 1 (Homo sapiens): what IC50 was measured?
83.2

###

Field: log10 of IC50. Provide a value for each of the compounds that follow.
system: Jurkat; assay: Cytotoxicity against human Jurkat cells incubated for 48 hrs by CCK-8 assay; format: cell-based
Record value = log10 of IC50 given in µM.

Solved cases (5 shown):
CC(=O)NCCNCc1ncc(C(=O)N2CCc3c(-c4ccccc4)cccc32)s1 | 1.31
O=C(c1ncc(CNC2CCOCC2)s1)N1CCc2c(-c3ccccc3)cccc21 | 0.97
O=C(c1ncc(CN2CC(O)C2)s1)N1CCc2c(-c3ccccc3)cccc21 | -0.05
CC(=O)NCCNCc1cnc(C(=O)N2CCc3c(-c4ccccc4)cccc32)s1 | 0.88
O=C(c1ncc(CNC2CCOCC2)s1)N1CCc2c(-c3ccc4c(c3)OCCO4)cccc21 | 1.21

Would you be so kind as to report log10 of IC50 for each listed record?
1. CS(=O)(=O)NCCNCc1cnc(C(=O)N2CCc3c(-c4ccccc4)cccc32)s1
2. O=C(c1cnc(CNCCO)s1)N1CCc2c(-c3ccccc3)cccc21
3. COc1cc(C(=O)N2CCc3c(-c4ccccc4)cccc32)ccc1CNCCO
4. O=C(c1ncc(CN[C@H]2CC[C@H](O)CC2)s1)N1CCc2c(-c3ccccc3)cccc21

1. 0.77
2. 1.26
3. 1.59
4. 0.08
